# PROCEDURE_SUMMARY: In vivo pharmacokinetic experiment in CD-1 mice
# ASSAY_CONDITIONS: male, mouse, po, 100 mg/kg, p.o. 100 mpk, plasma
ENDPOINT: AUC(0-t) (µM·h)
# output: bare number, implied unit µM·h

The value of AUC(0-t) measured for the compound C#Cc1c(F)ccc2cc(N)cc(-c3ncc4c(N5CC6CCC(C5)N6)nc(OC[C@@]56CC(=C)CN5C[C@@H]5C[C@@H]56)nc4c3F)c12 (single isomer, unassigned) turned out to be 13.1

----------
# System: GP2D human colon cancer cells with KRAS^G12D mutation
# PROCEDURE_SUMMARY: GP2D 3D CTG experiment (anti-proliferation)
# Assay type: cell-based
# ASSAY_CONDITIONS: 120 h, 5 days incubation
# Protocol: This experiment aims to verify the inhibitory effect of the compounds of the present disclosure on the proliferation of GP2D human colon cancer cells with KRAS^G12D mutation. Cell line GP2D and DMEM medium were purchased from GIBCO, FBS was purchased from Hyclone, and L-glutamine was purchased from Invitrogen. […] GP2D cells were cultured in an incubator at 37° C. with 5% CO2 under the conditions of DMEM+10% FBS+2 mM L-glutamine. […] A multimode microplate reader was used for reading. […]
ENDPOINT: IC50 (nM)
Enter your answer as a number in nM; do not include the unit.

Form field IC50, entry C#Cc1c(F)ccc2cc(N)cc(-c3ncc4c(N5CC6CCC(C5)N6)nc(OC[C@@]56CC(=C)CN5C[C@@H]5C[C@@H]56)nc4c3F)c12 (single isomer, unassigned) [Compound 3] : 0.54
